Molecular target: Prolyl endopeptidase-like (Homo sapiens) (UniProt Q4J6C6)
Sequence (Q4J6C6 whole entry, looked up): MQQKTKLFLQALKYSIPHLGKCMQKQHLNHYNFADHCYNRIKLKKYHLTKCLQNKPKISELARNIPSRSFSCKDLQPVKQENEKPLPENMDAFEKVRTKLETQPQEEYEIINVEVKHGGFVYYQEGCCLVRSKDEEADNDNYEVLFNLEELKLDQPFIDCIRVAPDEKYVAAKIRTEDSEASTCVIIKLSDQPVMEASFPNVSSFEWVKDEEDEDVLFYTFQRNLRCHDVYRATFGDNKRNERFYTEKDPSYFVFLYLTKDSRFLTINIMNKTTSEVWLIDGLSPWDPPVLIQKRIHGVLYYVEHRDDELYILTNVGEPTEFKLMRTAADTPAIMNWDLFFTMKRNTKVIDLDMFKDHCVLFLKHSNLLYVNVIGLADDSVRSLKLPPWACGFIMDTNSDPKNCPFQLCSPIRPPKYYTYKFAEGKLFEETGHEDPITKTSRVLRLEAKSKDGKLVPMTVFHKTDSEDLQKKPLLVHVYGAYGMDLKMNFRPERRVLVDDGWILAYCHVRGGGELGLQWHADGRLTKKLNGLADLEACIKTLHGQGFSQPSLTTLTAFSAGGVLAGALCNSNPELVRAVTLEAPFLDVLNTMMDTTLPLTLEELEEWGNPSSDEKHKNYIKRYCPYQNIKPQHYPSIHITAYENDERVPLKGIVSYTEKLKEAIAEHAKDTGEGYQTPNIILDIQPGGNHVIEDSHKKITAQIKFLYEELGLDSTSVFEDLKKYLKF
Assay: PREPL enzyme inhibitors, primary screen, biochemical, fluorescence polarization (AID 2751);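 further: 0% = enzyme with DMSO and 100% = wells lacking enzyme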
Conditions: recombinant PREPL, fluorescence polarization activity-based probe; at 5.96 µM
About 2,200 (0.69%) of roughly 320,000 compounds were called active. No stated cut-off is given here; in the data, active means inhibition above about 43%; inactive means the rest. Only a selection was taken, and actives are over-represented in it overall.
Labels: active, inactive

> print(dat)
                                    compound     class
 1  O=C1c2ccccc2C(=O)c2c1cccc2N1CCN(Cc2ccccc2)CC1  inactive
 2              CN(C)c1nccc(NCc2ccccc2)c1C#N  inactive
 3  O=C1c2ccccc2C(=O)c2c1cccc2N1CCN(C/C=C/c2ccccc2)CC1    active
 4  O=C(OCC1OC(Oc2ccc(O)cc2)C(O)C(O)C1O)c1ccccc1 (stereo unspecified)  inactive
 5  CCC(CO)Oc1cc(NC(=O)c2cccc3ccccc23)c2ncn(C(C)C)c2c1 (stereo unspecified)  inactive
 6  CC(C)C[C@H](CO)Nc1nc(N(C)c2cccc(Cl)c2)c2ncn(C(C)C)c2n1  inactive
 7  CC(C)n1cnc2c(NCc3ccccc3)cc(N[C@@H](CO)Cc3ccccc3)cc21    active
 8         Cc1cc(C(=O)NCCc2ccc(Cl)cc2)c(C)o1  inactive
 9  CC(OC(=O)/C=C/c1ccccc1)C(=O)NC1CCCCC1C (stereo unspecified)  inactive
10  Cc1ccc(C(C)NC(=O)Cn2nc(C)c([N+](=O)[O-])c2C)cc1 (stereo unspecified)  inactive
11  CC(C)n1cnc2c(NCc3ccccc3)cc(OCC3CCN(C)CC3)cc21    active

* * *

Target: Prolyl endopeptidase-like (Homo sapiens)
Experiment: PREPL enzyme inhibitors, primary screen, biochemical, fluorescence polarization (AID 2751);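 further: 0% = enzyme with DMSO and 100% = wells lacking enzyme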
Conditions: recombinant PREPL, fluorescence polarization activity-based probe; at 5.96 µM
Out of some 320,000 compounds screened, about 2,200 (0.69%) were called active. Cut-off read from the data, not from the text of the source: active = inhibition above about 43%; inactive = the rest. Many of the other results were omitted from the sample, so actives are more common in it than they were.
Labels: yes = active, no = inactive

> print(dat)
                                    compound  class
 1  C[C@H](NC(=O)c1ccccc1)C(=O)OCC(=O)c1c[nH]c2ccccc12     no
 2  CCN1/C(=C\c2ccc3ccccc3[n+]2CC)Sc2cc(C)ccc21    yes
 3       Oc1ccccc1-c1cc(-c2ccc(Cl)cc2)n[nH]1     no
 4  CCN1/C(=C/c2ccc3ccc(C)cc3[n+]2CC)Sc2ccccc21    yes
 5  NC(=O)c1cc2ccccc2o/c1=N/NC(=O)c1cccc(F)c1     no
 6  COc1cccc2cc(C(N)=O)/c(=N\NC(=O)c3ccccc3)oc12     no
 7  Nc1c(C(=O)c2cccs2)sc2nsc(SCCN3CCCCC3)c12    yes
 8  CN(C)c1ccc(C(CNC(=O)c2ccc(F)cc2)c2c[nH]c3ccccc23)cc1 (stereo unspecified)    yes
 9  C=CCN1C(=O)C(Cc2ccc(OCC)cc2)SC1=Nc1ccc(C(=O)O)cc1 (stereo unspecified)     no
10  CCN(CC)c1ccc2cc(C(N)=O)/c(=N\NC(=O)c3ccncc3)oc2c1    yes
11        CCCc1cc(=S)n2c([nH]c3ccccc32)c1C#N     no

* * *

Property: inhibition; scope: individual molecules
Target: Prolyl endopeptidase-like (Homo sapiens) (UniProt Q4J6C6)
Assay: PREPL enzyme inhibitors, primary screen, biochemical, fluorescence polarization (AID 2751);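 further: 0% = enzyme with DMSO and 100% = wells lacking enzyme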
Settings: recombinant PREPL, fluorescence polarization activity-based probe; at 5.96 µM; active compounds read high
The campaign covered roughly 320,000 compounds. About 2,200 (0.69%) were called active. The full list was thinned out, with actives kept by preference.
measuredQuantity: inhibition (%)

> print(dat)
                                    molecule  measuredquantity  numericreadout
 1  COc1ccc(C(=O)C2CCCN(C(=O)c3cnsn3)C2)c(C)c1 (configuration not stated)        inhibition            13.4
 2           O=C(OCc1nc2ccccc2[nH]1)C1CCCCC1        inhibition            10.5
 3  CC(C)c1ccc(S(=O)(=O)N2CCN(C(C)C(=O)NC3CCCC3)CC2)cc1 (configuration not stated)        inhibition            5.61
 4  COc1ccc(CC(=O)N[C@@H](CCSC)c2nc3ccccc3[nH]2)cc1        inhibition            5.96
 5  CCN(Cc1ccccc1)C(=O)CN1C(=S)NC(C)(C)CC1C (configuration not stated)        inhibition           -2.69
 6  CCn1nc(C)cc1C(=O)N1CCCC(C(=O)c2cccc(OC)c2)C1 (configuration not stated)        inhibition           -1.89
 7  CCNc1c(NS(=O)(=O)c2ccc(C3CCCCC3)cc2)c(=O)oc2ccccc12        inhibition            10.3
 8      Cc1ccc(/C=N/NC(=O)c2cc3ccccc3cc2O)o1        inhibition            13.4
 9           O=S(=O)(NCC1CC1)c1ccc(F)c(Cl)c1        inhibition           -5.91
10                  COC(=O)Cc1nc2ccccc2[nH]1        inhibition            47.1
11  CN(C(=O)CC1C(=O)NCCN1Cc1ccc2ccccc2c1)C1CCOCC1 (configuration not stated)        inhibition            15.8
12                S=C(NCCC1=CCCCC1)Nc1ccccc1        inhibition            9.47

* * *

Molecular target: Prolyl endopeptidase-like (Homo sapiens)
Assay: PREPL enzyme inhibitors, primary screen, biochemical, fluorescence polarization (AID 2751);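 further: 0% = enzyme with DMSO and 100% = wells lacking enzyme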
Details: recombinant PREPL, fluorescence polarization activity-based probe; at 5.96 µM; active compounds read high
The campaign covered roughly 320,000 compounds. About 2,200 (0.69%) were called active. The sample holds actives, similar compounds and a random draw of the others, so the mix is not that of the screen.
measuredQuantity: inhibition

> print(dat)
                                    molecule                         measurementtarget            result
 1  O=C(CCCCCN1C(=O)c2cccc3cccc(c23)C1=O)NCc1ccco1  Prolyl endopeptidase-like (Homo sapiens)  5.95% (inactive)
 2  CC(CNc1ccc([N+](=O)[O-])cc1)NC(=O)c1ccccc1Br (stereo unspecified)  Prolyl endopeptidase-like (Homo sapiens)  4.76% (inactive)
 3  O=C1c2cccc3cccc(c23)C(=O)N1CCCCCc1n[nH]c(=S)o1  Prolyl endopeptidase-like (Homo sapiens)  1.95% (inactive)
 4  O=C(Nc1ccc([N+](=O)[O-])cc1)C1CC12CCC2 (stereo unspecified)  Prolyl endopeptidase-like (Homo sapiens)  1.87% (inactive)
 5  COc1cccc(NC(=O)c2nn(C34CC5CC(CC(C5)C3)C4)cc2[N+](=O)[O-])c1  Prolyl endopeptidase-like (Homo sapiens)  1.65% (inactive)
 6   CCN1C(=O)/C(=C\N2CCN(c3ccccc3)CC2)SC1=S  Prolyl endopeptidase-like (Homo sapiens)    49.4% (active)
 7  CCN1C(=O)/C(=C\N2CCN(c3cccc(Cl)c3)CC2)SC1=S  Prolyl endopeptidase-like (Homo sapiens)  23.1% (inactive)
 8  Cc1nc([N+](=O)[O-])nn1C12CC3CC(CC(Br)(C3)C1)C2  Prolyl endopeptidase-like (Homo sapiens)    45.5% (active)
 9  COc1ccc2nc(N3CCCC(O)C3)c(C#N)cc2c1 (stereo unspecified)  Prolyl endopeptidase-like (Homo sapiens)  19.4% (inactive)
10         Cc1ncn(C23CC4CC(CC(O)(C4)C2)C3)n1  Prolyl endopeptidase-like (Homo sapiens)  3.85% (inactive)
11  NS(=O)(=O)c1ccc(CNC(=O)c2ccc(Cl)cc2[N+](=O)[O-])cc1  Prolyl endopeptidase-like (Homo sapiens)  13.1% (inactive)

* * *

Target: Prolyl endopeptidase-like (Homo sapiens)
Test: PREPL enzyme inhibitors, primary screen, biochemical, fluorescence polarization (AID 2751);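 further: 0% = enzyme with DMSO and 100% = wells lacking enzyme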
Settings: recombinant PREPL, fluorescence polarization activity-based probe; at 5.96 µM
About 2,200 (0.69%) of roughly 320,000 compounds were called active. No stated cut-off is given here; in the data, active means inhibition above about 43%; inactive means the rest. For the sample, actives were picked, then their nearest neighbours and some compounds at random.
Labels: T (active), F (inactive)

> print(dat)
                                    compound                         measurementtarget  class
 1  COC(=O)C1CCN(C(=O)c2cc(=O)[nH]c3ccccc23)CC1  Prolyl endopeptidase-like (Homo sapiens)      F
 2  O=C(c1cc(C(=O)N2CCN(c3ccc(F)cc3)CC2)cc([N+](=O)[O-])c1)N1CCN(c2ccc(F)cc2)CC1  Prolyl endopeptidase-like (Homo sapiens)      T
 3            COC(CNC(=O)Cn1ncc2ccsc2c1=O)OC  Prolyl endopeptidase-like (Homo sapiens)      F
 4  CC1CCN(C(=O)c2ccc(CSc3ccc(Cl)cc3)cc2)CC1  Prolyl endopeptidase-like (Homo sapiens)      F
 5  Cn1c(CC2Sc3ccccc3NC2=O)nnc1SCC(=O)c1ccc(Cl)cc1 (centres undefined)  Prolyl endopeptidase-like (Homo sapiens)      F
 6  O=C1N[C@H](Cc2c[nH]c3ccccc23)COC(=O)[C@H](Cc2ccc(F)cc2)C/C=C\C[C@H]1CC(=O)N(CCO)Cc1ccccc1  Prolyl endopeptidase-like (Homo sapiens)      T
 7  CCCC(C(=O)NCc1ccco1)N(C(=O)CNS(=O)(=O)c1ccccc1)C1CCCC1 (centres undefined)  Prolyl endopeptidase-like (Homo sapiens)      F
 8  CC(=O)N1CCN(c2ccc(NCc3ccc(C(C)C)cc3)cc2)CC1  Prolyl endopeptidase-like (Homo sapiens)      T
 9  COc1cc2c(cc1O)[C@H](Cc1ccc(Oc3cc(C[C@@H]4NCCc5cc(OC)c(O)cc54)ccc3O)cc1)NCC2  Prolyl endopeptidase-like (Homo sapiens)      T
10       CC(C)Oc1ccc(Oc2ccc(C(F)(F)F)cn2)cc1  Prolyl endopeptidase-like (Homo sapiens)      F
11     CC(C)N(Cc1ccccc1)C(=O)COC(=O)c1cnccn1  Prolyl endopeptidase-like (Homo sapiens)      F
12             O=C(Nc1ccc2c(c1)OCCO2)C1CCCC1  Prolyl endopeptidase-like (Homo sapiens)      F
13      Cn1cnc(S(=O)(=O)Nc2ccc3c(c2)OCCO3)c1  Prolyl endopeptidase-like (Homo sapiens)      F
14  O=C1NC(Cc2ccc(O)cc2)c2nc3ccc(Cl)cc3c(=O)n2-c2ccccc21 (centres undefined)  Prolyl endopeptidase-like (Homo sapiens)      F
15  O=C(OCC(=O)N1CCN(c2ccccc2)CC1)c1ccc([N+](=O)[O-])s1  Prolyl endopeptidase-like (Homo sapiens)      T
16  CCCC(CCC(=O)OC)(C(=O)OCC)c1csc(N)n1 (centres undefined)  Prolyl endopeptidase-like (Homo sapiens)      F
17    CCCNCc1cc(OCC)c(OCC(=O)Nc2ccccc2)cc1Br  Prolyl endopeptidase-like (Homo sapiens)      F
18    CNCC[C@H](Oc1ccc(C(F)(F)F)cc1)c1ccccc1  Prolyl endopeptidase-like (Homo sapiens)      T
19                     Cc1ccc(Nc2ccccc2N)cc1  Prolyl endopeptidase-like (Homo sapiens)      T
20    Cc1ccc(C(=O)NNC(=O)CSc2nnc3ccccn23)cc1  Prolyl endopeptidase-like (Homo sapiens)      F
21  O=C(Nc1cccc(S(=O)(=O)N2CCOCC2)c1)C12CC3CC(CC(C3)C1)C2  Prolyl endopeptidase-like (Homo sapiens)      F
22      CC1CCN(C(=O)c2ccc3c(c2)NC(=O)CN3)CC1  Prolyl endopeptidase-like (Homo sapiens)      T
23  COc1ccc2c(c1)CCNC2Cc1ccc(OC)c(O)c1 (centres undefined)  Prolyl endopeptidase-like (Homo sapiens)      F
24  CC1CCC2(CC1)NC(=O)N(Cc1nnc(-c3cccs3)o1)C2=O (centres undefined)  Prolyl endopeptidase-like (Homo sapiens)      F
25  CC(OC(=O)c1ccc(S(=O)(=O)N2CCOCC2)cc1)c1ccccc1 (centres undefined)  Prolyl endopeptidase-like (Homo sapiens)      F
26       C=C(C)CNC(=S)N/N=C/c1ccccc1OCC(=O)O  Prolyl endopeptidase-like (Homo sapiens)      F
27  O=C1N[C@@H](c2ccccc2)COC(=O)[C@H](Cc2ccc(F)cc2)C/C=C\C[C@@H]1CC(=O)N(CCO)Cc1ccccc1  Prolyl endopeptidase-like (Homo sapiens)      F
28  O=C(c1ccccc1Oc1ccccc1)N1CCN(c2ccc(F)cc2)CC1  Prolyl endopeptidase-like (Homo sapiens)      F
29  C=C1C2C[C@H](O)C(C)(C)[C@@]2(O)[C@H](O)C[C@]23C[C@@](C)(O)[C@H](CC[C@H]12)[C@H]3O (some centres undefined)  Prolyl endopeptidase-like (Homo sapiens)      F
30  CC(NC(=O)COC(=O)Cn1cc(C(F)(F)F)ccc1=O)c1ccccc1 (centres undefined)  Prolyl endopeptidase-like (Homo sapiens)      F
31  O=C(c1cccc(C(=O)N2CCN(c3ccc(F)cc3)CC2)c1)N1CCN(c2ccc(F)cc2)CC1  Prolyl endopeptidase-like (Homo sapiens)      T
32  CC1(C)CC[C@@]2(C(=O)O)C(C1)C1=CCC3[C@@]4(C)CC[C@H](O)C(C)(C)C4CC[C@@]3(C)[C@]1(C)C[C@H]2O (some centres undefined)  Prolyl endopeptidase-like (Homo sapiens)      F
33  COc1ccccc1CNC(=O)CSc1nc(=O)n(Cc2ccncc2)c2c1CCC2  Prolyl endopeptidase-like (Homo sapiens)      F
34  C[C@H](NC(=O)c1ccccc1Cl)C(=O)OCC(=O)N1CCN(c2ccccc2)CC1  Prolyl endopeptidase-like (Homo sapiens)      F
35  CCCc1cc(=O)[nH]c2nnc(SCC(=O)Nc3nnc(SCC)s3)n12  Prolyl endopeptidase-like (Homo sapiens)      F
36                Nc1ccc(C(=O)Nc2ccccc2N)cc1  Prolyl endopeptidase-like (Homo sapiens)      F
37  CCCCN(C(=O)c1ccc(C)o1)c1c(N)n(CCCC)c(=O)[nH]c1=O  Prolyl endopeptidase-like (Homo sapiens)      F
38    O=C(Nc1ccc(F)cc1)N1CCN(c2ccc(F)cc2)CC1  Prolyl endopeptidase-like (Homo sapiens)      F
39  Cc1ccc(S(=O)(=O)C2C(=O)NC3(C)CC2c2ccccc2O3)cc1 (centres undefined)  Prolyl endopeptidase-like (Homo sapiens)      F
